# TARGET_OF_ASSAY: T1, ScTFIIS LW domain (residue 1–81), wild type (S. cerevisiae, UniProt P07273 1-81)
# T1 sequence (looked up): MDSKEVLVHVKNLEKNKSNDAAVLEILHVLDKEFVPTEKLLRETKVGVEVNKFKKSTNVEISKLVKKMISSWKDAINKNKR
# PROCEDURE_DETAILS: ITC
MEASUREMENT_LABEL: Kd (µM)
State the answer as a number, implicitly in µM.

In plain terms, EEDAELDDLFGDDND (peptide, UniProt P38439 54-68, looked up) [ScLeo1 peptide (residue 54–68) containing the LFG motif] has a documented Kd of 3.3
